- TESTED_ON: human κ-chain (human)
- EXPERIMENTAL_PROTOCOL: Kd at pH 8, method not stated; one Kd given for the mutation, ticked in Y64W PpL and F39W PpL

{"BINDER": "Q35E Y64W PpL (protein) MNIKFAGKETPETPEEPKEEVTIKVNLIFADGKIETAEFKGTFEEATAEAYRYADLLAKVNGEWTADLEDGGNHMNIKFAGK", "Kd, µM": 0.3}
{"BINDER": "Q35E F39W PpL (protein) MNIKFAGKETPETPEEPKEEVTIKVNLIFADGKIETAEWKGTFEEATAEAYRYADLLAKVNGEYTADLEDGGNHMNIKFAGK", "Kd, µM": 0.3}
